B1: INTS3 (parent)
chain: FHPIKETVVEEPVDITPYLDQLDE

# Variants of: B1
# Assay overview: protein stability index of a GFP-peptide fusion (GPS, HEK-293T) (PSI 1-6); higher = more stable;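 note: lentivirally expressed fusions sorted by FACS into six bins by GFP to DsRed ratio, PSI derived from sequencing read proportions per bin multiplied by bin number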
# Experimental context: c terminus: a fixed tail appended
Measurement kind: protein stability index
Please respond with just the number, no unit label.

# Mutation annotation, protein stability index
measured = [
    ("L22D", 3.62),
    ("V8S", 3.38),
    ("E11I", 1.77),
]

Prompt: I would be grateful if you could share the reported protein stability index for `I4M` .
Completion: 4.2

Prompt: Entry to check: `P12W`
Completion: 2.79
